# pKd annotations
- measurementTarget: T1, PUF4 RNA-binding domain (Saccharomyces cerevisiae, UniProt P25339 537-888)
- T1 sequence: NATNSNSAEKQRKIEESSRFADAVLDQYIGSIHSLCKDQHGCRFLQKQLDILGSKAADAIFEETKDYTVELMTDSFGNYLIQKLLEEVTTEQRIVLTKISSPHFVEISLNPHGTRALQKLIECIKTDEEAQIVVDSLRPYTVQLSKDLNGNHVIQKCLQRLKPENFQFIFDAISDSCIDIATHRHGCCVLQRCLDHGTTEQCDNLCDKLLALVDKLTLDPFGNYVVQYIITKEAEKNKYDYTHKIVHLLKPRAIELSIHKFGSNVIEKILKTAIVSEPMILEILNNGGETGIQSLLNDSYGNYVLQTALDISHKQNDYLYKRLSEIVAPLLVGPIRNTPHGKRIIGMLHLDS
- assaySummary: Mg; RNA-MaP; 20 mM Na-HEPES pH 7.4, 30 mM KOAc, 0.75 mM MgCl2, 0.1% Tween-20, 5% glycerol, 0.1 mg/mL BSA, 2 mM DTT; 25 C; 0.0125-409.6 nM protein
- experimentalSetup: tags: N-His6-TEV cleaved; C-SNAP kept, Cy3B-labelled; label: tethered on chip by stalled RNA polymerase
# pKd: negative log10 of molar concentration; output just the value

# annotated cases, reported pKd shown
1. UCUCUUUGUACUUAUCUCUU (ssRNA) [Ic_S1_P3E.1_K3.1_C3.1_H3.1_A3.1_[T5C]_[A6T]_F3.1_T3.1]	7.18
2. UCUCUUUGUAUAUUUCCUUAUCUCUU (ssRNA) [Ie_S1_P4E.1_K4.1_C4.1_H4.1_A4.1_[+7TTCCT]_F4.1_T4.1]	8.41
3. Ic_S2_P4E.1_K4.1_C4.1_H4.1_A4.1_F4.1_[T8C]_[A9G]_T4.1 (ssRNA) RNA: UUUGAUUAAUAUGAUAUCGUUCUUUCUUGUAUAUCGUUCUUUCUCGAUAUCAUAUUAAUCUUU	8.10
4. UCUCUUUGUGUAUUAUUAUCUCUCUU (ssRNA) [Id_ii_S1_P5E.2_K5.1_C5.2_[C-2T]_[T-1G]_H5.1_A5.1_F5.1_T5.2_[A12C]]	8.43
5. UCUCUUAUUGUAUAUAUAUCUCUU (ssRNA) [Id_ii_S1_P3E.2_K3.1_C3.2_[C-2A]_H3.1_A3.1_F3.1_T3.2]	8.31

Lookup: Dear colleague, I am looking for the recorded pKd of the following binder: Id_ii_S2_P3E.4_K3.3_C3.2_[C-2T]_[T-1C]_H3.3_A3.1_F3.1_T3.2_[T9C] (ssRNA) RNA: UUUGAUUAAUAUGAUAUCGUUCUUUCUUCACACUAUACAUUCUUUCUCGAUAUCAUAUUAAUCUUU
Found: 6.38
